inhibition for assorted compounds
- measurement_target: Nuclear receptor coactivator 1 (Homo sapiens) (UniProt Q15788)
- Sequence (Q15788 whole entry, looked up): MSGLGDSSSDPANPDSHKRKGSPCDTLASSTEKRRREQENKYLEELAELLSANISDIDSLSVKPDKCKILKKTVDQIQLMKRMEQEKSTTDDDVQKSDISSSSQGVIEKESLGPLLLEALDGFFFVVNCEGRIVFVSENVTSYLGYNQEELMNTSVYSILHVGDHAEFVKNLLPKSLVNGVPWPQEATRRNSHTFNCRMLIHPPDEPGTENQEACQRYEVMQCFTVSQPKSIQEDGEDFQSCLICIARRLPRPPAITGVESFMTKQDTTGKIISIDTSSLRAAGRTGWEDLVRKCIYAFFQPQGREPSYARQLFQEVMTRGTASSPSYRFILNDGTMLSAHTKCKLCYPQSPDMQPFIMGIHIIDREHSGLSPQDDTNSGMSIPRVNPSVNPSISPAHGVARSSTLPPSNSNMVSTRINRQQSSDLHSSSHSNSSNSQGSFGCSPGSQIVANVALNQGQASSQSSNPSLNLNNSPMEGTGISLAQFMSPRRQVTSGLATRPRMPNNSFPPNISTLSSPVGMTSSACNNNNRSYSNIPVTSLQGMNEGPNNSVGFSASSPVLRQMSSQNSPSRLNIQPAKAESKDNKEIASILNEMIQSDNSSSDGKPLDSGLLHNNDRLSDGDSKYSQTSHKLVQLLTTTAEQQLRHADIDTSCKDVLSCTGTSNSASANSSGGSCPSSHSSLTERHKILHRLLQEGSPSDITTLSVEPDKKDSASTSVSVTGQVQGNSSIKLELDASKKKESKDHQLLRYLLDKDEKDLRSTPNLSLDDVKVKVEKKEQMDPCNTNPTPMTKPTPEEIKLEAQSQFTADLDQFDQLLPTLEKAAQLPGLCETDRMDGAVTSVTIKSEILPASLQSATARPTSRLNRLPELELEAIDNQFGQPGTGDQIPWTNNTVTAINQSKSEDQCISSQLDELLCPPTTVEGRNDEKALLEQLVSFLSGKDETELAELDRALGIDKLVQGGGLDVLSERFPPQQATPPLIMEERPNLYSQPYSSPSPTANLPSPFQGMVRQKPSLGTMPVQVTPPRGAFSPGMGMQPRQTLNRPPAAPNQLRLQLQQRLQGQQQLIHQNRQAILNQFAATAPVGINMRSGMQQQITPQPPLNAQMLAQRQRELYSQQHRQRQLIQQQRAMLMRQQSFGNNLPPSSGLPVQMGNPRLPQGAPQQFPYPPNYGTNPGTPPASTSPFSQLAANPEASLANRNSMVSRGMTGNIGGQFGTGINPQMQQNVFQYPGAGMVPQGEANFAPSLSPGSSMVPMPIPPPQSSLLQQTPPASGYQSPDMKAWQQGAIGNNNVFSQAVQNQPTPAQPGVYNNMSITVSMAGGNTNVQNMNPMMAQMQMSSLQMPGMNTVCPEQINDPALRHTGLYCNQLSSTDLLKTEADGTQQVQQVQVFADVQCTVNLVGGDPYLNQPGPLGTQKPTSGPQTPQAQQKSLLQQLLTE
- method_summary: SRC1 coactivator transcriptional activity inhibitors, confirmation, cell-based, luminescence, quadruplicate (AID 588820);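 further: 0% = DMSO wells and 100% = gossypol 36 µM treated wells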
- experimental_conditions: HEK293 GAL4-SRC1 luciferase reporter, at 3.6 µM, active compounds read high

- compound: "COCC(C)n1c(C)cc(C(=O)COC(=O)c2cc(=O)[nH]c3ccccc23)c1C (stereo unspecified)"
  measurement_target: "Nuclear receptor coactivator 1 (Homo sapiens) (UniProt Q15788)"
  inhibition, %: -34.1
- compound: "CN(Cc1c(C(=O)N/N=C/c2cccc(F)c2)nnn1-c1nonc1N)C1CCCCC1"
  measurement_target: "Nuclear receptor coactivator 1 (Homo sapiens) (UniProt Q15788)"
  inhibition, %: 6.95
- compound: "CC1=C(C(=O)OCc2ccc3c(c2)OCO3)C(c2ccc(O)c([N+](=O)[O-])c2)NC(=O)N1 (stereo unspecified)"
  measurement_target: "Nuclear receptor coactivator 1 (Homo sapiens) (UniProt Q15788)"
  inhibition, %: 58.6
- compound: "Cc1onc(-c2ccccc2)c1C(=O)NC(=S)NNC(=O)c1ccc(O)cc1O"
  measurement_target: "Nuclear receptor coactivator 1 (Homo sapiens) (UniProt Q15788)"
  inhibition, %: 69.8
- compound: "COc1ccc(NC(=O)C2CCN(c3cnccn3)CC2)cc1Cl"
  measurement_target: "Nuclear receptor coactivator 1 (Homo sapiens) (UniProt Q15788)"
  inhibition, %: 1.5
- compound: "O=C(N/N=C(\\c1ccccc1)c1cccnc1)c1cccc(F)c1"
  measurement_target: "Nuclear receptor coactivator 1 (Homo sapiens) (UniProt Q15788)"
  inhibition, %: 31
- compound: "Cc1csc(NC(=O)c2cc(-c3ccccc3)nc3ccccc23)n1"
  measurement_target: "Nuclear receptor coactivator 1 (Homo sapiens) (UniProt Q15788)"
  inhibition, %: 7.56
- compound: "Oc1ccc(C=NNc2ccccn2)c(O)c1"
  measurement_target: "Nuclear receptor coactivator 1 (Homo sapiens) (UniProt Q15788)"
  inhibition, %: 14.7
- compound: "COc1ccc(CNc2ncc(-c3ccc(F)cc3)n2C)c2ccccc12"
  measurement_target: "Nuclear receptor coactivator 1 (Homo sapiens) (UniProt Q15788)"
  inhibition, %: 41.3
- compound: "Cc1ccc(S(=O)(=O)c2nc(-c3ccccc3Cl)oc2NCCCN2CCOCC2)cc1"
  measurement_target: "Nuclear receptor coactivator 1 (Homo sapiens) (UniProt Q15788)"
  inhibition, %: -13.7
- compound: "O=C(Nc1nc(-c2ccccc2)cs1)c1ccc2c(=O)n3c(nc2c1)CCCCC3"
  measurement_target: "Nuclear receptor coactivator 1 (Homo sapiens) (UniProt Q15788)"
  inhibition, %: -12

---

- Tested on: transactivating tegument protein VP16 (Human herpesvirus 1)
- method_summary: VP16 transactivation reporter inhibitors, counter-screen for SRC2 inhibitor project, cell-based, luminescence, single concentration (AID 652007)
- experimental_conditions: cell-based VP16 transactivation luciferase reporter, at 8.9 µM, active compounds read high

- molecule: "CCOc1ccc(CN2CCNC(=O)C2CC(=O)NCCc2cnccn2)cc1 (stereo not given)"
  inhibition, %: 10.4
- molecule: "Cc1cccc(/C=C(\\c2nc3ccccc3[nH]2)S(=O)(=O)c2ccccc2)c1"
  inhibition, %: 10.3
- molecule: "C=CCn1nc(C(=O)N2CCOCC2)cc1-c1sc(NC(=O)c2ccccc2)nc1C"
  inhibition, %: -15.6
- molecule: "COc1ccc(C(=O)Nc2ccccc2C(=O)N/N=C/c2ccc(O)c(OC)c2)cc1"
  inhibition, %: 64.8
- molecule: "Cc1cccc(N(Cc2ccccc2)C(=O)CCl)c1"
  inhibition, %: 15
- molecule: "O=C(NCCc1c[nH]c2ccccc12)c1ccc([N+](=O)[O-])o1"
  inhibition, %: 2.92
- molecule: "Cc1ccc(N(C(=O)CCl)C(C(=O)NC2CCCCC2)c2cccnc2)cc1C (stereo not given)"
  inhibition, %: 55.2
- molecule: "O=C(CCCCl)NC(=S)Nc1cc(C(F)(F)F)ccc1N1CCOCC1"
  inhibition, %: -12.4
- molecule: "CCN(CC(=O)Nc1cc(Cl)ccc1C)C(=O)C1CCN(c2ncnc3sc(C)c(C)c23)CC1"
  inhibition, %: 8.26
- molecule: "Cc1ccc2c(c1)COc1c3ccc(C(=O)O)cc3nn1-2"
  inhibition, %: -24.7

Ref: PubChem BioAssay
